Reported values of inhibition for individual entries
- Target or test system: UniProtKB P46098
- Particulars: Compound concentration 10 µM
- Description: PDSP Primary Binding target: HTR3A - Compounds are tested at 10 uM concentration, plate are incubated at room temperature in the dark for 90 minutes. Reaction are stopped by vacuum filtration onto 0.3% polyethyleneimine soaked filter mats using Filtermate harvester. Scintilation cocktail is then melted onto microwave-dried filters on a hot plate and the radio activity is counted in Microbia counter.

>>> test_result("COc1ccc(NC(=O)c2ccc(-c3ccc(-c4noc(C)n4)cc3C)cc2)cc1OCCN(C)C")
"5.18%"
>>> test_result("Cc1cc(C)cc(-c2cnc3cc(Cl)c(-c4cccc(O)c4)cc3c2OCCCN)c1")
"43.9%"

Now consider a different compound.
// inhibition value for `COc1ccc(OC(F)(F)F)cc1CN[C@H]1CCCN[C@H]1c1ccccc1` : 13.1%

###

inhibition by entry:
- Target or test system: 5-hydroxytryptamine receptor 3A (Homo sapiens) (UniProt P46098)
- Sequence (P46098 whole entry): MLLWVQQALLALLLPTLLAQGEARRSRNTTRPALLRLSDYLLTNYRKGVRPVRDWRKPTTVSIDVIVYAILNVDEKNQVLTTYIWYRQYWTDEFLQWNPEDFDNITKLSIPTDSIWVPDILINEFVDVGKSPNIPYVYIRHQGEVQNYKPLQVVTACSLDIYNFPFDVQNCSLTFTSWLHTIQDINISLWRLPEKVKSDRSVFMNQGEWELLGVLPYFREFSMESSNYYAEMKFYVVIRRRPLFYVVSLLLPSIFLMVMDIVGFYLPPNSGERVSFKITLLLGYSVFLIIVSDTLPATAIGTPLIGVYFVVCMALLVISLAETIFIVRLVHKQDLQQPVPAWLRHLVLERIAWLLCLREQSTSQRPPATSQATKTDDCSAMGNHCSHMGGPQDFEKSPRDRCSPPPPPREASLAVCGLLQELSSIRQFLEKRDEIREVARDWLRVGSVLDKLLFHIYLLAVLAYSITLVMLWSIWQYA
- Particulars: Compound concentration 10 µM
Number in %, nothing else.

>>> test_result("Cc1ccc(O)c([C@H](CCN(C(C)C)C(C)C)c2ccccc2)c1")
-0.33

For this compound ( `c1ccc(N2CCN(Cc3nc4ccccc4[nH]3)CC2)nc1` ), measured inhibition is -2.37

// field: inhibition; key: `Cc1c(C(=O)NC2CCCCC2)sc2nc3ccc(N)cc3n12` ; value = -6.74

###

Listed next: entries and their corresponding inhibition.
- Target or test system: Muscarinic acetylcholine receptor M1 (Homo sapiens) (UniProt P11229)
- Sequence (P11229 whole entry): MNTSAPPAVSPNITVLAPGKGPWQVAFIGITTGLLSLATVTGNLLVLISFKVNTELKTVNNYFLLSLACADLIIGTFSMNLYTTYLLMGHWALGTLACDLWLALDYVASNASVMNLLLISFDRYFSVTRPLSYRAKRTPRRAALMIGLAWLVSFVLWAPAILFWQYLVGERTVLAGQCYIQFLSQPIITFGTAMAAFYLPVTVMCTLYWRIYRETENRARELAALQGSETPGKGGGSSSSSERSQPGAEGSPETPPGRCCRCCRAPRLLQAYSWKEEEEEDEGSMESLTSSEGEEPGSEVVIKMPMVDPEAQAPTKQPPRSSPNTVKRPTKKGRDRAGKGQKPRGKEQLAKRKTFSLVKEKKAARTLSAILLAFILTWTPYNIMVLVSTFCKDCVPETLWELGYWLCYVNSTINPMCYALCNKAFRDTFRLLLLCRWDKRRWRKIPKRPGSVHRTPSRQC
- Particulars: Compound concentration 10 µM
- Description: PDSP Primary Binding target: CHRM1 - Compounds are tested at 10 uM concentration, plate are incubated at room temperature in the dark for 90 minutes. Reaction are stopped by vacuum filtration onto 0.3% polyethyleneimine soaked filter mats using Filtermate harvester. Scintilation cocktail is then melted onto microwave-dried filters on a hot plate and the radio activity is counted in Microbia counter.
Give the quantity in %, number only.

>>> test_result("NC[C@H](O)c1ccc(O)c(O)c1")
-6.89
>>> test_result("O=C(O)C1CN(Cc2ccc(OCc3ccc(Cl)c(Cl)c3)cc2)C1")
2.35
>>> test_result("Cc1ccc(O)c([C@H](CCN(C(C)C)C(C)C)c2ccccc2)c1")
99.2
>>> test_result("N#Cc1c(O)nc(SCc2cccc(F)c2F)nc1C1CC1")
-6.12
>>> test_result("O=C(Cc1ccccc1)Nc1nc2ccc(Cl)cc2c2nc(-c3ccco3)nn12")
5.61
>>> test_result("O=C(Cc1ccc(Cl)c(Cl)c1)N1CCCC[C@H]1CN1CCCC1")
9.74
>>> test_result("COc1ccc(CNC(=O)c2cc(-c3cncc(Cl)c3)cnc2-c2ccccn2)nc1OC")
-7.31
>>> test_result("Cc1cc(C(=O)N2Cc3cnn(C)c3Nc3ccccc32)ccc1CNC(=O)N1CCC[C@H]1C(=S)N1CCCN(C)CC1")
49.6
>>> test_result("COc1ccc(Br)cc1S(=O)(=O)NC(=O)/C=C/c1ccccc1Cc1ccc2ccccc2c1")
4.85
>>> test_result("C[C@@H](NCCc1ccc(O)cc1)[C@@H](O)c1ccc(O)cc1 (relative stereo)")
24.4

The recorded inhibition for `Cc1nc(C(=O)N2CCC[C@H]2Cc2nnc(-c3ccccc3)o2)c(-c2ccccc2F)s1` is -9.02

Record summary for `FC(F)(F)c1c(N2CCC(c3ccccc3)CC2)ccn2c(CC3CC3)nnc12` : reported inhibition = -1.64

Short answer for `CCC[C@H](Oc1cc(C)c(-n2cc(C(F)(F)F)cn2)c(C)c1)c1ccc(C(=O)NCCC(=O)O)cc1` : inhibition was 28

In plain terms, `O=C1N/C(=N/c2ccccc2F)S/C1=C\c1ccc(C(=O)O)cc1` has a documented inhibition of 17.1

###

inhibition values by entry
- Target or test system: UniProt P41595
- Sequence (P41595 whole entry): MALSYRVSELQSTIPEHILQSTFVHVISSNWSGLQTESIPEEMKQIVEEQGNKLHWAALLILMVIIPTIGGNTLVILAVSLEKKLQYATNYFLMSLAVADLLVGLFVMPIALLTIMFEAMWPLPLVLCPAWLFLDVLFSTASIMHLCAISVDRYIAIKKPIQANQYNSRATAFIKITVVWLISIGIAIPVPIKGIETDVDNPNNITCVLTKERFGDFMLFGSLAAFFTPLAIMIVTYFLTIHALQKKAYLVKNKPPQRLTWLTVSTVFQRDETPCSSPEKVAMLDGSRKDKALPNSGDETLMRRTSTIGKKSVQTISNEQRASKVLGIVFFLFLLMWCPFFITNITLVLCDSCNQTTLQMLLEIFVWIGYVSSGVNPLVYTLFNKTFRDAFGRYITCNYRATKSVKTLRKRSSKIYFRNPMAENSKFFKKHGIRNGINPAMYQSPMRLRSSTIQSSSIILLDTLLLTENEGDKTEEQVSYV
- Particulars: Compound concentration 10 µM
- Description: PDSP Primary Binding target: HTR2B - Compounds are tested at 10 uM concentration, plate are incubated at room temperature in the dark for 90 minutes. Reaction are stopped by vacuum filtration onto 0.3% polyethyleneimine soaked filter mats using Filtermate harvester. Scintilation cocktail is then melted onto microwave-dried filters on a hot plate and the radio activity is counted in Microbia counter.
Report only the number, with the unit % understood.

Worked cases, answers included:
>>> test_result("O=C(Cc1ccccc1)Nc1nc2ccc(Cl)cc2c2nc(-c3ccco3)nn12")
-0.19
>>> test_result("O=C1N/C(=N/c2ccccc2F)S/C1=C\\c1ccc(C(=O)O)cc1")
-3.68
>>> test_result("Oc1ccc2c3c1O[C@H]1c4[nH]c5c(c4C[C@@]4(O)[C@@H](C2)N(CC2CC2)CC[C@]314)C[C@@]1(O)[C@H]2Cc3ccc(O)c4c3[C@@]1(CCN2CC1CC1)[C@H]5O4")
14.2

We now examine a further compound.
get_value(item= `COc1ccc(OC(F)(F)F)cc1CN[C@H]1CCCN[C@H]1c1ccccc1` , readout=inhibition) returns 87.7
